Molecular target: T1, human CD4 on cells (SKW3 cells; human PBMCs) (human, UniProt P01730 26-458)
T1 construct: whole, on cells; SKW3 CD4 knockout cells served as the negative cell line for the WT vs KO ratios; also called hCD4; SKW3 WT
Assay: FACS primary screen, non-clonal hybridoma supernatant; SKW3 WT vs SKW3 CD4 KO cells, anti-hKappa-FITC
Outcome label depends on SKW3 WT vs KO anti-hKappa-FITC relative to 2 fold: at/above gives class 1, below gives class 0.

BINDER	CLASS LABEL
75110_05A11A (antibody, V domains shown, Tested as non-clonal hybridoma supernatant (AlivaMab Mouse Kappa), detected with anti-mouse Fc and anti-human kappa) VH: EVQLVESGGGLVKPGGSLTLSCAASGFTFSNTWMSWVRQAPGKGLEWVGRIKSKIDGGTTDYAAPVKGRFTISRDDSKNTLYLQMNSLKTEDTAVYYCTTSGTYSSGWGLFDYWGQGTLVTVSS VL: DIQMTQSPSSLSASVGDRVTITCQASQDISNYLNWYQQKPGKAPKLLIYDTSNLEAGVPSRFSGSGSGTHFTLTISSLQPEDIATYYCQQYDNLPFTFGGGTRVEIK	class 0
75110_01C18A (antibody, V domains shown, Tested as non-clonal hybridoma supernatant (AlivaMab Mouse Kappa), detected with anti-mouse Fc and anti-human kappa) VH: EVQLVESGGGLIQPGGSLRLSCAASGFTVSSNYMNWVRQAPGKGLEWVSVIYAGDNTYSADSVKGRFTISRDNSNNTLCLQMNSLRAEDTAVYYCAREGGTTGAFDIWGQGTMVTVSS VL: DIQMTQSPSSVSASVGDRVTITCRASQGINSWLAWYQQKPGKAPKLLIYAASSLQSGVPSRFSGSGSGTDFTLTISSLQPEDFATYYCQQGNSFPYTFGQGTKLEIK	class 1
75110_05E13A (antibody, V domains shown, Tested as non-clonal hybridoma supernatant (AlivaMab Mouse Kappa), detected with anti-mouse Fc and anti-human kappa) VH: EVQLVESGGDLVKPGGSLRLSCAASGFSFSNAWMSWVRQAPGKGLEWVGRVESKTDGGTTDYAAPVKDRFTISRDDSKYTLYLQMNSLKTEDSAVYYCTIGGGFGLELYGFFDYWGQGTLVTVSS VL: DIQMTQSPSTLSASVGDRVTITCRASQSISSWLAWYQQKPGKAPMLLIYKASSLESGVPSRFSGSGSGTEFTLTISSLQPDDFATYYCLQYNSYYTFGQGTKLEIK	class 0

In: Hi team, for 75110_02E22A (antibody, V domains shown, Tested as non-clonal hybridoma supernatant (AlivaMab Mouse Kappa), detected with anti-mouse Fc and anti-human kappa) VH: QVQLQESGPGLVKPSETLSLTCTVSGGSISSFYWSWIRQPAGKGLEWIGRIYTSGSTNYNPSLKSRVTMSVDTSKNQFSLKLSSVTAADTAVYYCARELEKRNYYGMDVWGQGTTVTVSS VL: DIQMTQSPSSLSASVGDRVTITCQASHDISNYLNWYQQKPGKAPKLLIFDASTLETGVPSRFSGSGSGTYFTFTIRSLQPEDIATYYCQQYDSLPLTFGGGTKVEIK , is the recorded SKW3 WT vs KO anti-hKappa-FITC at or above 2 fold?
Out: class 0

In: Does the reported SKW3 WT vs KO anti-hKappa-FITC for 75110_03I08A (antibody, V domains shown, Tested as non-clonal hybridoma supernatant (AlivaMab Mouse Kappa), detected with anti-mouse Fc and anti-human kappa) VH: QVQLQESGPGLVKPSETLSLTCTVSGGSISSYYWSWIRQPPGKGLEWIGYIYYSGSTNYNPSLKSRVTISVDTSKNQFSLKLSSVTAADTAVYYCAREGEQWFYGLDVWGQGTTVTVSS VL: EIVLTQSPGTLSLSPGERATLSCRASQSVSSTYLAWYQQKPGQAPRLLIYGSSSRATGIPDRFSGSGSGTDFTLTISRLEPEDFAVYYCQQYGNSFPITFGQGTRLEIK fall at or above the 2 fold mark?
Out: class 1
